# EXPERIMENTAL PROTOCOL: protein stability index of a GFP-peptide fusion (yeast GPS) (PSI 1-4); higher = more stable; sorted into four equal gates, so the index is relative within each strain
# CONDITION INFO: ubr1∆
Class y: protein stability index at least 3. Class n: protein stability index below 3.

[[record]]
chain_sequence = "TRKAVRPQKLRASLVPG [RPL6B]"
class_name = "n"


Ask: // inclusive: protein stability index at least 3? input: RNNVMLLIATNLKEYNK [SRB8]
Result: n

Ask: Exam item: decide whether the reported protein stability index for EIIADWIWDMNVHGSLE [BRR2] is at least 3.
Result: n

###

The following sequences are listed with their measured protein stability index values.
# EXPERIMENTAL PROTOCOL: protein stability index of a GFP-peptide fusion (yeast GPS) (PSI 1-4); higher = more stable; sorted into four equal gates, so the index is relative within each strain
# CONDITION INFO: san1∆
// keep it numeric: no unit symbol after the value

[[record]]
chain_sequence = "NPRKRAIPNSIIKRSNG [YMR153W/NUP53]"
quantitative_result = 2.67

[[record]]
chain_sequence = "IRDSGDRIDLRYSKRAG [RPO21]"
quantitative_result = 3.25

[[record]]
chain_sequence = "GLGVNRRILAAAAAAAA [SSN3]"
quantitative_result = 1.08

[[record]]
chain_sequence = "PWCVKPEYLAMYGLTME [ITC1]"
quantitative_result = 2.79

[[record]]
chain_sequence = "NKLTGKQIVFEIPSETH [RPS7A]"
quantitative_result = 2.86

[[record]]
chain_sequence = "DKLTSIQDTLRTGSQSP [MED7]"
quantitative_result = 2.69

[[record]]
chain_sequence = "LDALTRHIKSKHEDLSL [RPN4]"
quantitative_result = 1.57

[[record]]
chain_sequence = "MAFQKDAKSSAYSSRFQ [RPL5]"
quantitative_result = 3.02


Ask: Query (sequence): DSKLLPKNIEPPLTSQY [SWI3] ; field requested: protein stability index
Result: 2.92

Ask: Item QLFSTFDRLNGNDTISK [SSN2] has what recorded protein stability index?
Result: 3.19

###

A collection of sequences and their measured protein stability index
# EXPERIMENTAL PROTOCOL: protein stability index of a GFP-peptide fusion (yeast GPS) (PSI 1-4); higher = more stable; sorted into four equal gates, so the index is relative within each strain
# CONDITION INFO: doa10∆

[[record]]
chain_sequence = "TNVPKAKKRKTLILIQN [SIR3]"
result = 1.67


Ask: Suppose we examine the sequence GSIRVHKSGKLSVKIGN [RPC53] ; what protein stability index value has been reported?
Result: 1.27

Ask: Fill in the blank: the reported protein stability index of GNVLINDTLPDEISPEL [SNU114] is ____.
Result: 2.99

Ask: Requested field: protein stability index. Item: PNADDIRDSIPQMDSFD [DIS3]
Result: 2.79

Ask: // returns reported protein stability index for input IDLDHKRFLILQGEVEN [SMC4]
Result: 1.58

Ask: Which value of protein stability index has been reported for LEKKGFSEVYEYNRLKV [LIN1] in the records?
Result: 3.34

Ask: Given NNPLLLIVDVKQQGVGL [RPN8] , state its recorded protein stability index.
Result: 1.27

Ask: # protein stability index lookup, item RDHEKDTYRTLMEEIES [YIL149C/MLP2]
Result: 3.31

Ask: // returns reported protein stability index for input YDSRTTIFSPEGRLYQV [PRE9]
Result: 3.02

###

Collected protein stability index values appear next to each entry.
# EXPERIMENTAL PROTOCOL: protein stability index of a GFP-peptide fusion (yeast GPS) (PSI 1-4); higher = more stable; sorted into four equal gates, so the index is relative within each strain
# CONDITION INFO: ubr1∆
Give the figure only, with no unit attached.

Solved cases below.
[[record]]
chain_sequence = "HEIYGSMPLEQLIPIIL [SRB4]"
quantitative_result = 1.72

[[record]]
chain_sequence = "SIYKYIHLNELLTNDES [SNF12]"
quantitative_result = 2.63

[[record]]
chain_sequence = "EGTPINNVYFAAGALFV [RPN14]"
quantitative_result = 2.45

[[record]]
chain_sequence = "QLKYDTSVQEKELMLQS [YIL149C/MLP2]"
quantitative_result = 2.53

[[record]]
chain_sequence = "FIYKKVLKEKDVPAYNV [SRB8]"
quantitative_result = 3.13

[[record]]
chain_sequence = "GPSATDPETTATQKESL [RGR1]"
quantitative_result = 2.21


Ask: Which protein stability index value belongs to EDLHEKNDSAEVRQETQ [NUT1] ?
Result: 3.53

Ask: Fill in: protein stability index of FEGNALIRRLVRVGVLS [RPS9A] is ___
Result: 1.15

Ask: Please report the recorded protein stability index for PSILEDSLENNEGVPSP [FAS1] .
Result: 3.14

###

# EXPERIMENTAL PROTOCOL: protein stability index of a GFP-peptide fusion (yeast GPS) (PSI 1-4); higher = more stable; sorted into four equal gates, so the index is relative within each strain
# CONDITION INFO: ubr1∆
Consider the following sequences and their measured protein stability index readings.
# output: bare number, no unit

Example entries begin here.
[[record]]
chain_sequence = "YPESISNELIEHFSHFG [YDL088C/ASM4]"
quantitative_result = 2.93

[[record]]
chain_sequence = "ASTGSGKTLAFVIPILI [PRP28]"
quantitative_result = 3.09

[[record]]
chain_sequence = "AIRKAPHNSKSLGFLQQ [RPN3]"
quantitative_result = 2.54

[[record]]
chain_sequence = "YPDLQPFVLAENMWPFS [CDC53]"
quantitative_result = 1.71

[[record]]
chain_sequence = "VSFNSKQNEQLHVEQLS [SMC3]"
quantitative_result = 2.85


Ask: Requested read-out: protein stability index. Entry: SELIRTTLDAEKVFTQG [FAS1]
Result: 3.08

Ask: Would you mind telling me what protein stability index value was observed for AVEQRKKEKLDSGEVDA [DPB4] ?
Result: 3.27

Ask: Give the measured protein stability index of LSGGGHDNHGNKLGNKR [CDC53] .
Result: 3.65

Ask: What value of protein stability index has been recorded for this entry: HRSGKIVVQLNGRLNKC [RPS22A]
Result: 3.36

Ask: Return reported protein stability index; argument: NYPQDEINAVFNELCDP [POP1]
Result: 3.07

Ask: For the sequence FSKFERSKSSHKNERRV [SKI6] , what protein stability index is on record?
Result: 3.25

Ask: Query: protein stability index; subject: TTVQVAEEAIVNAMRVL [PRE4]
Result: 2.54

Ask: Data request, read-out protein stability index, for LIQQVPPGLDALVKPET [CDC53]
Result: 3.24

Ask: What does the data say about its protein stability index? Entry: NISSSQQLLPAPQLFPY [DSN1]
Result: 2.84

###

Readings of protein stability index for the listed sequences
# EXPERIMENTAL PROTOCOL: protein stability index of a GFP-peptide fusion (yeast GPS) (PSI 1-4); higher = more stable; sorted into four equal gates, so the index is relative within each strain
# CONDITION INFO: pdr5∆
# answer = number (no unit)

These recorded examples may help you get a feel for the data.
[[record]]
chain_sequence = "TRKAVRPQKLRASLVPG [RPL6B]"
quantitative_result = 1.67

[[record]]
chain_sequence = "SDPAAKKTATEPKQKAN [SRP21]"
quantitative_result = 3.04

[[record]]
chain_sequence = "YQRPMQVQGQQQAQSFV [SSN3]"
quantitative_result = 2.71

[[record]]
chain_sequence = "GCLIKNLPRTKAKSVVN [RMP1]"
quantitative_result = 2.52


Ask: Please give the measured protein stability index for this sequence: GEAEAEKEEEEAKEESD [RPP1A]
Result: 3.51

Ask: Suppose we examine the sequence ELGTAVGKLFRVGVVSI [RPL30] ; what protein stability index value has been reported?
Result: 1.17

Ask: Requested read-out: protein stability index. Entry: IPHDLNFLQESYEVEHV [TAF14]
Result: 3.33

Ask: Request the reported protein stability index associated with THEQWSNIQRNVLFLRL [SRP72]
Result: 2.38

###

# EXPERIMENTAL PROTOCOL: protein stability index of a GFP-peptide fusion (yeast GPS) (PSI 1-4); higher = more stable; sorted into four equal gates, so the index is relative within each strain
# CONDITION INFO: san1∆
Values of protein stability index greater than or equal to 2 map to Yes; values below map to No.

Ask: Would you say FATTKAECISLICSIGL [ECM29] shows protein stability index at minimum 2?
Result: No

Ask: Determine whether measured protein stability index meets or exceeds 2 for DMLKYKEDEPVVARRSN [ITC1]
Result: No

###

# EXPERIMENTAL PROTOCOL: protein stability index of a GFP-peptide fusion (yeast GPS) (PSI 1-4); higher = more stable; sorted into four equal gates, so the index is relative within each strain
# CONDITION INFO: pdr5∆
Measured protein stability index, listed per entry for reference.
Form rule: numeric answer, no unit written next to it.

Sample records with protein stability index:
[[record]]
chain_sequence = "RENNFRVASDTVHEMEE [SMC4]"
quantitative_result = 3.36

[[record]]
chain_sequence = "KPNQTIMVLDASIGQAA [SRP54]"
quantitative_result = 2.65

[[record]]
chain_sequence = "LLVVIFKKTLRSRISSP [SRB4]"
quantitative_result = 1.66

[[record]]
chain_sequence = "DRPGSKFHKREVVEAVT [RPL3]"
quantitative_result = 1.96


Ask: Could you share which protein stability index value was measured for AAPLLALLRENQDSVKT [RPN2] ?
Result: 3.23

Ask: Fill blank: measured protein stability index of the sequence LISGKAGVLNGTLEYGT [RET1] is ____.
Result: 3.03

Ask: For the sequence VSVLLISKDCSAFACKT [BRR2] , what protein stability index is on record?
Result: 2.27

Ask: Fill blank: measured protein stability index of the sequence EEHHEEEPSRVDPEQEA [RPT4] is ____.
Result: 3.28

Ask: Fill in the blank: the reported protein stability index of ARTATVSKKWAAAGVCE [RPL14B] is ____.
Result: 3.21

Ask: Sample RLTFKPWVVYLQILAML [YMR129W/POM152] — what was its protein stability index?
Result: 1.22

Ask: Please report the recorded protein stability index for SSFRPCPLSQQFCGIKE [BRR2] .
Result: 1.9

Ask: Reported protein stability index, sequence SNKILVYESEMEQCKQR [YIL149C/MLP2] : ____
Result: 2.95

Ask: Which protein stability index reading was recorded for the sequence CKIDFQKNFMDQFQWIL [RRI2] ?
Result: 1.47

Ask: Consider the sequence HTLALEFVNGGKVVKNV [RRP46] and give its measured protein stability index.
Result: 2.22
